Target: T1, Activin A (UniProt P08476)
T1 sequence (looked up): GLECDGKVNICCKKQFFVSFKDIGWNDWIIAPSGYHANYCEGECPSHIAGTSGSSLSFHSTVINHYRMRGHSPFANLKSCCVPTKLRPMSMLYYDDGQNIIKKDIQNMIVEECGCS
Test: cell-based or functional assay
ATTRIBUTE MEASURED: IC50 (µg/mL)

BINDER	VALUE OBSERVED
ActRIIB(20-131)-hFc (Fc fusion, not shown: a dimerising Fc or GST) GRGEAETRECIYYNANWELERTNQSGLERCEGEQDKRLHCYASWRNSSGTIELVKKGCWLDDFNCYDRQECVATEENPQVYFCCCEGNFCNERFTHLPEAGGPEVTYEPPPT	0.201

a = ActRIIB(23-131)-hFc (Fc fusion, not shown: a dimerising Fc or GST) EAETRECIYYNANWELERTNQSGLERCEGEQDKRLHCYASWRNSSGTIELVKKGCWLDDFNCYDRQECVATEENPQVYFCCCEGNFCNERFTHLPEAGGPEVTYEPPPT
b = ActRIIB(24-131)-hFc (Fc fusion, not shown: a dimerising Fc or GST) AETRECIYYNANWELERTNQSGLERCEGEQDKRLHCYASWRNSSGTIELVKKGCWLDDFNCYDRQECVATEENPQVYFCCCEGNFCNERFTHLPEAGGPEVTYEPPPT
Exercise: Quick check, higher IC50 between a and b ? Output the label that corresponds to your choice.
Solution: b

A = ActRIIB(21-131)-hFc (Fc fusion, not shown: a dimerising Fc or GST) RGEAETRECIYYNANWELERTNQSGLERCEGEQDKRLHCYASWRNSSGTIELVKKGCWLDDFNCYDRQECVATEENPQVYFCCCEGNFCNERFTHLPEAGGPEVTYEPPPT
B = ActRIIB(22-131)-hFc (Fc fusion, not shown: a dimerising Fc or GST) GEAETRECIYYNANWELERTNQSGLERCEGEQDKRLHCYASWRNSSGTIELVKKGCWLDDFNCYDRQECVATEENPQVYFCCCEGNFCNERFTHLPEAGGPEVTYEPPPT
Exercise: # query: argmin of IC50 over A and B Give the label under which the chosen entry appears.
Solution: B
(B: 0.1 µg/mL, A: 0.325 µg/mL)
